This collection of values is drawn from patent US20240409663A1.

STUDY_TARGET: T1, human GPC3 on cells (human, UniProt P51654 25-554)
T1 construct: whole, on cells; over-expressed on CHOK1 cells or endogenous on HEPG2, Hep3B and Huh-7 hepatocellular carcinoma cells; the cell line is named under assay; also called GPC3-CHOK1 cells; human GPC3 over-expressed CHOK1 cells
EXPERIMENT_SUMMARY: FACS, GPC3-CHOK1 cells
Experimental: To evaluate the antigen binding property, the affinity maturated antibodies were analyzed for their binding to human GPC3 over-expressed CHOK1 cells by FACS as previously described.
READOUT_TYPE: pEC50
Notebook: values listed as pEC50 are -log10 of the concentration (mol/L).

Query (binder): 52H5D3B8-18#-VH2+VL3 (antibody, V domains shown) VH: QVQLVQSGAEVKKPGASVKVSCKASGYTFTRYEMHWVRQAPGQGLEWIGAIHPGSGGTAYNSKFKGRVTMTADTSTSTVYMELSSLRSEDTAVYYCTRYYSYAYWGQGTLVTVSS VL: DIVMTQTPLSLSVTPGQPASISCRSSQSLVHSNGNTYLQWYLQKPGQSPKLLIYKVSNRYSGVPDRFSGSGSGTDFTLKISRVEAEDVGVYYCVESIHVPYTFGGGTKLEIK ; field requested: pEC50 9.75
